Exercise: state measured Atrial EC25 for each of the compounds provided.
tested on: Porcine atria myofibrils (atrial myosin ATPase); experiment: Myofibril ATPase assay, porcine atria myofibrils; assay type: biochemical; details: Y75 value (no ‡ mark); porcine atria myofibrils
Give bare numbers, in nM.

Below: 3 compounds and their reported Atrial EC25.
Cc1ccncc1[C@H](C)NC(=O)Cc1c(C)c2cc(F)ccc2[nH]c1=O | 100000
Cc1c([C@@H](C)C(=O)N[C@H](C)c2ncc(C#N)cc2F)c(=O)[nH]c2ccc(F)c(F)c12 (relative stereo) | 670
COc1ccc2[nH]c(=O)c(CC(=O)N[C@@H](C)c3ccc(F)cc3F)cc2c1C | 29940

Give Atrial EC25 for each listed item.
1. C[C@H](NC(=O)Cc1cc2c(F)cccc2[nH]c1=O)c1ccc(C#N)cn1
2. Cc1cc(F)cnc1[C@H](C)NC(=O)C1(c2cc3c(F)c(F)ccc3[nH]c2=O)CC1 (single isomer, unassigned)
3. CCc1c(CC(=O)N[C@@H](C)c2ncc(C#N)cn2)c(=O)[nH]c2ccc(F)c(C)c12 (single isomer, unassigned)
4. Cc1cc([C@H](C)NC(=O)Cc2c(O)c3c(C)c(F)ccc3[nH]c2=O)ncc1F
5. Cc1c(C(F)(F)C(=O)N[C@@H](C)c2ncc(C#N)cn2)c(=O)[nH]c2ccc(F)c(C#N)c12 (single isomer, unassigned)
6. C[C@H](NC(=O)C1(c2cc3cc(F)ccc3[nH]c2=O)CC1)c1cccc(C#N)n1 (single isomer, unassigned)
7. Cc1c(Cl)ccc2[nH]c(=O)c(CC(=O)N[C@@H](C)c3ncc(C#N)cc3F)c(C)c12 (single isomer, unassigned)
8. C[C@@H](NC(=O)[C@H](C)c1cc2c(F)c(F)ccc2[nH]c1=O)c1ncc(C#N)cc1F (single isomer, unassigned)

[1550, 710, 290, 100000, 320, 100000, 50, 600]

Give Atrial EC25 for each listed item.
1. C[C@H](NC(=O)Cc1c(C(F)F)c2c(F)c(F)ccc2[nH]c1=O)c1ccc(F)cc1F
2. Cc1c(CC(=O)N[C@@H](C)c2ncc(C#N)cc2F)c(=O)[nH]c2cccc(C#N)c12
3. C[C@H](NC(=O)Cc1cc2c(F)cc(F)cc2[nH]c1=O)c1ncc(C#N)cc1F
4. C[C@H](NC(=O)C(F)(F)c1cc2c(F)c(F)ccc2[nH]c1=O)c1nccc(C#N)n1 (single isomer, unassigned)

[30, 120, 1640, 150]

Give Atrial EC25 for each listed item.
1. Cc1nc(C#N)cnc1[C@@H](C)NC(=O)Cc1c(C)c2c(F)c(F)ccc2[nH]c1=O
2. Cc1cc(C#N)ncc1[C@@H](C)NC(=O)Cc1c(C)c2c(C)c(F)ccc2[nH]c1=O
3. C[C@@H](NC(=O)C1(c2cc3c(F)c(F)ccc3[nH]c2=O)CC1)c1nccc(C#N)n1 (single isomer, unassigned)
4. Cc1nc(C#N)cnc1[C@@H](C)NC(=O)C1(c2cc3c(F)c(F)ccc3[nH]c2=O)CC1 (single isomer, unassigned)
5. C[C@H](NC(=O)Cc1c(C#N)c2cc(F)c(F)cc2[nH]c1=O)c1ccc(C#N)cn1 (single isomer, unassigned)
6. Cc1c(CC(=O)N[C@H](C)c2ccc(C#N)cc2F)c(=O)[nH]c2ccc(F)c(C(F)(F)F)c12
7. Cc1ccc2[nH]c(=O)c(CC(=O)N[C@@H](C)c3ncc(C#N)cn3)cc2c1F (single isomer, unassigned)

1: 140; 2: 60; 3: 100000; 4: 430; 5: 900; 6: 40; 7: 100000
